Biological target: HIV-1 Env of 6405.v4.c34 (HIV-1)
Test: cell-based or functional assay
Below is a list of entries, each paired with its recorded neutralization IC50 value.
endpoint: neutralization IC50

[[record]]
binder = "CAP256-VRC26.06 (antibody, V domains shown) VH: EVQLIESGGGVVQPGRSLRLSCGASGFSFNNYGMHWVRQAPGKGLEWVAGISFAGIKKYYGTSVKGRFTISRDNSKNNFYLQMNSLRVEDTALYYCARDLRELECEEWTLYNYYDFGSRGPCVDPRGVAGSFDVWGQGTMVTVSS VL: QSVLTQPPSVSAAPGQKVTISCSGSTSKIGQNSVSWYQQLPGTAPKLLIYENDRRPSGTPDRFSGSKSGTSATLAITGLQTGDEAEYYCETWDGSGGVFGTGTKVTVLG"
endpoint = "neutralization IC50"
result = "> 50 µg/mL"

[[record]]
binder = "CAP256-VRC26.04 (antibody, V domains shown) VH: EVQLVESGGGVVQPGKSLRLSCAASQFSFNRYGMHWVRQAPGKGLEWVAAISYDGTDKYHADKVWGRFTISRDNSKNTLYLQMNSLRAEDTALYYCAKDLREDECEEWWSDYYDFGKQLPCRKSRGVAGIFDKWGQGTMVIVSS VL: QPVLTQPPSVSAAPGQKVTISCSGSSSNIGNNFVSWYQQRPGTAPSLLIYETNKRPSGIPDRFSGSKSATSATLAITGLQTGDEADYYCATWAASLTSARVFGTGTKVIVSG"
endpoint = "neutralization IC50"
result = "> 50 µg/mL"

[[record]]
binder = "CAP256-VRC26.02 (antibody, V domains shown) VH: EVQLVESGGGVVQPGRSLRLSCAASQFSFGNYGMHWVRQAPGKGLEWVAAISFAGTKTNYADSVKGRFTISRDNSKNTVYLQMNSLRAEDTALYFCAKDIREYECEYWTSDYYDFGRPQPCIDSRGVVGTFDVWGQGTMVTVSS VL: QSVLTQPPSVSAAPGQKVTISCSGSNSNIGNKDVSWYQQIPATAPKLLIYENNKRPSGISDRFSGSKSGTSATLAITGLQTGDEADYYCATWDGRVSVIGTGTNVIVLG"
endpoint = "neutralization IC50"
result = "> 50 µg/mL"

